Target: T1, human CD24 (human, UniProt P25063 27-59, heavily glycosylated, GPI-anchored (as described in the background))
T1 construct: whole, on cells; Target of all cell-based FACS assays; also called hCD24; Cluster of differentiation 24
T1 chain (looked up): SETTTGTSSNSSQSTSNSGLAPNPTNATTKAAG
Assay: FACS, MDA-MB-468 cells

- binder: "56A7E3 (antibody, V domains shown, mouse monoclonal antibody) VH: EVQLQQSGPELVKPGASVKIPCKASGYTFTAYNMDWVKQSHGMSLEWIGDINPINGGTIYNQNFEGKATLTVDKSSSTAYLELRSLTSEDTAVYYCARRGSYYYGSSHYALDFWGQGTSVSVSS VL: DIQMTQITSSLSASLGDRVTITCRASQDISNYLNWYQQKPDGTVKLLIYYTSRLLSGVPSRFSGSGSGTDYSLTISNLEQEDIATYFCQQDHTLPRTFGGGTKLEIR"
  EC50, nM: 16.7
- binder: "ch81A1F8-hIgG4 (antibody, V domains shown, chimeric; also called chAb81A1F8; ch81A1F8-IgG4) VH: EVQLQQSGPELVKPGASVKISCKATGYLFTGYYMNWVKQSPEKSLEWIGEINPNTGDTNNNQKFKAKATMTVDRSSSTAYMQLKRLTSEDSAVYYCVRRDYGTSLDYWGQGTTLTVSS VL: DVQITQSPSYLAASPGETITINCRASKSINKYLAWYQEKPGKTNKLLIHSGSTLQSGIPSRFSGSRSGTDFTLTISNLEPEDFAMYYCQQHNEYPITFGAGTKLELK"
  EC50, nM: 5.75
- binder: "73H5-1G2 (antibody, V domains shown, mouse monoclonal antibody) VH: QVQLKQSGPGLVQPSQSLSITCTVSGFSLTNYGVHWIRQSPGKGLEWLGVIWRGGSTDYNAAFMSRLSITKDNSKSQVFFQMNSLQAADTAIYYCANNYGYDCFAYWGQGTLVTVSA VL: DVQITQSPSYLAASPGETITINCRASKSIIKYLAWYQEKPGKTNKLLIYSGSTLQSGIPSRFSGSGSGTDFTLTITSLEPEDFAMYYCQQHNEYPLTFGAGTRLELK"
  EC50, nM: 28
- binder: "100F2E3 (antibody, V domains shown, mouse monoclonal antibody) VH: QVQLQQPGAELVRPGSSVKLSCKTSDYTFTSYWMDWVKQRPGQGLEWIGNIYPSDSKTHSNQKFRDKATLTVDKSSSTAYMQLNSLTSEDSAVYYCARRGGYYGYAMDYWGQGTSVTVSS VL: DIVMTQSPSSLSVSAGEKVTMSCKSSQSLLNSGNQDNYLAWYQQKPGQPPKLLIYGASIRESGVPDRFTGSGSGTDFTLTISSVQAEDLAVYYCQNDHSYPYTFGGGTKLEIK"
  EC50, nM: 19.6
- binder: "71A4F12 (antibody, V domains shown, mouse monoclonal antibody) VH: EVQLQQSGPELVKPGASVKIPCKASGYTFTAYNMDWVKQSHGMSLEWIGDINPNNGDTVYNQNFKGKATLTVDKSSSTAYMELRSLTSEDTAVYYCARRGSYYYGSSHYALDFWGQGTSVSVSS VL: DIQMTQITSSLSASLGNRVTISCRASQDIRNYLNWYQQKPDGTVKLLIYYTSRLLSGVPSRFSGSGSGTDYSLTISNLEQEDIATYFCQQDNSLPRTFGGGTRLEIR"
  EC50, nM: 11.7
